Values compiled from patent US20040024024A1.

- TARGET_SYSTEM: Human recombinant MMP-2 (Homo sapiens)
- Construct: made in house; host or cells: MMP-2-transfected p2AHT2 cells
- Sequence (P08253 110-660): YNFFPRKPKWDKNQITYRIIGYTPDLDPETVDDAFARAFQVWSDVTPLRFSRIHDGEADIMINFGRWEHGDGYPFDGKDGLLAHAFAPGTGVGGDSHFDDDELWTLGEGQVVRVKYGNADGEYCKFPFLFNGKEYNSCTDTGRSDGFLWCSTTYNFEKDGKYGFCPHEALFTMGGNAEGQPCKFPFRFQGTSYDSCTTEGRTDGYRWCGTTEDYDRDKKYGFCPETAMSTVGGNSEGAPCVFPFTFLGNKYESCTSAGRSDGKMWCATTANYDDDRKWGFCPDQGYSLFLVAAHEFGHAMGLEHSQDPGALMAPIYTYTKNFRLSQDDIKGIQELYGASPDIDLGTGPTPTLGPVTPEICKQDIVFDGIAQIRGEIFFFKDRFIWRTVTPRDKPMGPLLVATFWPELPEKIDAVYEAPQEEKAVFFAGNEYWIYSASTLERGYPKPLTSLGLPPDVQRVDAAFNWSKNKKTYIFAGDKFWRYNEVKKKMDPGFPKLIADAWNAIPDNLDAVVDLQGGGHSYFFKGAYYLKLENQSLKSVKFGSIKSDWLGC
- METHOD: In vitro MMP inhibition, IC50 determination (fluorogenic substrate I)
- Format: biochemical
- EXPERIMENTAL_CONTEXT: value outside parenthesis
OBSERVATION_TYPE: IC50 (nM)

| SMILES_STRING | TARGET_SYSTEM | QUANTITY_UNIT | IC50 |
| --- | --- | --- | --- |
| O=C(NO)C1(S(=O)(=O)c2ccc(OCCCc3nc(-c4ccc5c(c4)OCO5)no3)cc2)CCOCC1 | Human recombinant MMP-2 (Homo sapiens) | nM | 20.3 |

P. O=C(NO)C1(S(=O)(=O)c2ccc(OCCCc3nnc(-c4ccc(-c5ccccc5)cc4)o3)cc2)CCOCC1
Q. COCCN1CCC(C(=O)NO)(S(=O)(=O)c2ccc(OCCCCC(=O)c3ccc(N(C)C)cc3)cc2)CC1
R. CC(C)C(=O)c1cccc(CCCOc2ccc(S(=O)(=O)C3(C(=O)NO)CCOCC3)cc2)c1
Exercise: Arrange the 3 entries by IC50 so the values rise. # format: label list in the order the request specifies
Solution: Q, R, P
(Q: 15.7 nM, R: 91.4 nM, P: 174 nM)
